Values compiled from ChEMBL document CHEMBL5104216.

This section presents compounds with their documented Activity_index values.
- protocol_text: Redox activity of compound assessed as redox index at 1 uM measured by resazurin assay
- Type: physicochemical

Answered examples (10):
Task item: For the compound Cc1cnc(N)s1 , give its reported Activity_index.
Reply: 1

Task item: Supply reported Activity_index belonging to this compound: O=C(O)c1csc(Nc2cccc3ncccc23)n1
Reply: 1

Task item: Query Activity_index for Nc1ccc(S(=O)(=O)Nc2nccs2)cc1 [SULFATHIAZOLE]
Reply: 0.9

Task item: Dear colleague, please send me the reported Activity_index for N#Cc1cnc(N)s1 when you can.
Reply: 0.9

Task item: Indicate its recorded Activity_index; the compound in question is COC(=O)CC(=O)Nc1ncc(Br)s1
Reply: 1

Task item: Quick one: give measured Activity_index for Nc1nc(-c2ccncc2)cs1
Reply: 1

Task item: Provide one value: measured Activity_index of O=C(O)c1csc(-c2ccc(F)cc2)n1
Reply: 0.9

Task item: Answer with the recorded Activity_index of CCOC(=O)c1sc(Br)nc1C only.
Reply: 0.9

Task item: Give a short answer stating reported Activity_index for N#Cc1cnc(Br)s1 .
Reply: 0.9

Task item: Using known records, supply Activity_index for Cc1nnc(N)s1
Reply: 0.9

Others:
Task item: Supply Activity_index value. Item: Nc1nnc(C(F)(F)F)s1
Reply: 0.9

---

- system_name: Replicase polyprotein 1ab (Severe acute respiratory syndrome coronavirus 2) (UniProt P0DTD1)
- protocol_text: Inhibition of recombinant SARS-CoV-2 3CLpro expressed in Escherichia coli NiCo21(DE3) assessed as residual activity at 500 uM using DABCYL-KTSAVLQSGFRKME-EDANS as substrate preincubated for 30 mins followed by substrate addition and measured by FRET assay relative to control
Let's look at some compounds and their measured Activity.
# value in %; strip the unit string

# example entries with known answers
Task item: Give the reported Activity for this compound. CCOC(=O)c1csc(N)n1
Reply: 18.9

Task item: Give Activity for the following compound: O=C(O)c1csc(Br)n1
Reply: 73.6

***
Task item: In one line, give reported Activity of the entry Cc1nnc(N)s1 .
Reply: 121

---

- protocol_text: Aqueous stability of the compound at pH 7.4 measured after 60 mins by spectrophotometric analysis
- Format: physicochemical
- measurement_conditions: buffer, pH 7.4, 1 h
parameter_measured: Stability

Task item: Read off the recorded Stability for Nc1ncc(Br)s1
Reply: Stable

Task item: Look up and report measured Stability for this entry: Nc1nc(-c2ccncc2)cs1
Reply: Stable

Task item: Give the reported value of Stability for this record: Cc1cnc(N)s1
Reply: Stable

Task item: Let me know recorded Stability for Fc1ccc(-c2csc(Br)n2)cc1F , thanks.
Reply: Unstable

Task item: Note down Stability recorded for COC(=O)c1csc(Br)n1
Reply: Stable

Continuing:
Task item: Answer with reported Stability of COC(=O)C(=O)Nc1ncc(Br)s1
Reply: Unstable

Task item: Report Stability, nothing else, for this compound: CCOC(=O)c1sc(Br)nc1C
Reply: Unstable

Task item: For the compound Nc1nccs1 [AMINOTHIAZOLE] , report Stability.
Reply: Stable

Task item: Identify Stability associated with the compound COC(=O)c1cnc(Br)s1
Reply: Stable

Task item: Find the measured Stability of O=C(O)c1csc(-c2ccncc2)n1 and report it.
Reply: Stable

Task item: Return Stability (reported value) for this compound: N#Cc1cnc(N)s1
Reply: Stable

Task item: Dear colleague, please send me the reported Stability for Clc1nccs1 when you can.
Reply: Stable

Task item: Recall and state the measured Stability for COC(=O)CC(=O)Nc1ncc(Br)s1 .
Reply: Stable

Task item: Let me know recorded Stability for N#Cc1cnc(NC(=O)CC(=O)O)s1 , thanks.
Reply: Stable

Task item: Supply measured Stability of N#Cc1cnc(Br)s1 in your reply.
Reply: Stable

Task item: Report Stability, nothing else, for this compound: O=C(O)C(=O)Nc1ncc(Br)s1
Reply: Stable

---

- system_name: UDP-N-acetylglucosamine 1-carboxyvinyltransferase (Escherichia coli K-12) (UniProt P0A749)
- Sequence (P0A749 whole entry): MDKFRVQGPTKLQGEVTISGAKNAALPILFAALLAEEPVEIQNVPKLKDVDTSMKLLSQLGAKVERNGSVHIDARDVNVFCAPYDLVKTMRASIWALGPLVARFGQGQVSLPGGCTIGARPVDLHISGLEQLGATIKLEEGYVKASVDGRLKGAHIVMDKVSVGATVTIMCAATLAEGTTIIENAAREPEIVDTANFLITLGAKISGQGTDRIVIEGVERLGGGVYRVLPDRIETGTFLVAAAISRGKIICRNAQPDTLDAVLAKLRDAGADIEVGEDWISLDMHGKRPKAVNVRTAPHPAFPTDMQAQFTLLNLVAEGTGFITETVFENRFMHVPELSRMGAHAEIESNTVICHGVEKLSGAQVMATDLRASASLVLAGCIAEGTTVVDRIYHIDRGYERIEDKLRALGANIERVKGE
- protocol_text: Inhibition of recombinant Escherichia coli MurA assessed as residual activity at 500 uM using UDP-N-acetylglucosamine as substrate preincubated for 30 mins in presence of 1 mM DTT followed by substrate addition and measured by malachite green based colorimetric assay relative to control
parameter_measured: Activity (%)
// return numeric value only (unit: %, not printed)

Study these solved cases before continuing.
Task item: Annotate the compound Cc1cnc(N)s1 with its measured Activity.
Reply: 94.6

Task item: Give Activity for the following compound: Cc1nc(CCl)cs1
Reply: 112

Task item: Fill in Activity for record CC(C)(C)c1csc(N)n1
Reply: 106

Task item: # return recorded Activity for input Fc1ccc(-c2csc(Br)n2)cc1F
Reply: 81.9

Task item: Return Activity for the following compound: O=C(O)c1csc(-c2ccncc2)n1
Reply: 106

Others:
Task item: Determine its reported Activity: CCOC(=O)c1sc(Br)nc1C
Reply: 103

Task item: For the compound O=C(O)c1nc(Br)cs1 , report Activity.
Reply: 106

Task item: Supply Activity value. Item: Nc1nc(CC(=O)O)cs1
Reply: 99.2

Task item: Fill in Activity for record Cc1csc(N)n1
Reply: 102

Task item: # return recorded Activity for input CCOC(=O)c1csc(Br)n1
Reply: 100

---

- system_name: UniProt:P0DTD1
- protocol_text: Inhibition of recombinant SARS-CoV-2 3CLpro expressed in Escherichia coli NiCo21(DE3) assessed as residual activity at 500 uM using DABCYL-KTSAVLQSGFRKME-EDANS as substrate preincubated for 30 mins followed by substrate addition and measured by FRET assay relative to control
Decide using Activity: a value greater than or equal to 90% is TRUE, a smaller one is FALSE.

A selection of reference data follows.
Task item: Check the entry Cc1nc(C(=O)O)cs1 : does Activity equal or exceed 90%?
Reply: FALSE

Task item: Hi team, for Cc1nc(CCl)cs1 , is the recorded Activity at or above 90%?
Reply: TRUE

Task item: Reported Activity at or above 90%? Nc1ccc(S(=O)(=O)Nc2nccs2)cc1 [SULFATHIAZOLE]
Reply: FALSE

Task item: For this compound, is measured Activity 90% or higher? O=C(O)c1csc(-c2ccncc2)n1
Reply: TRUE

Next:
Task item: Textbook exercise: given the entry CC(C)(C)c1csc(N)n1 , state whether its Activity is greater than or equal to 90%.
Reply: FALSE

Task item: Could you tell me if the measured Activity of Nc1ncc(Br)s1 reaches 90% or more?
Reply: FALSE

---

Entries and their measured Activity follow.
- Tested on: Mycobacterium tuberculosis
- protocol_text: Inhibition of Mycobacterium tuberculosis MetAP1a assessed as residual activity at 625 uM using L-methionine 7-amido-4-methylcoumarin as fluorogenic substrate and measured by fluorescence based assay
Give the value in % but do not write % after it.

Task item: Consider the molecule CCOC(=O)c1cnc(Br)s1 and give its recorded Activity.
Reply: 92.3

Task item: Note down Activity recorded for Cc1nc(CCl)cs1
Reply: 124

Task item: Look up and report measured Activity for this entry: Clc1nccs1
Reply: 122

Task item: Note Activity for the molecule shown: O=C(O)c1csc(Nc2cccc3ncccc23)n1
Reply: 36.8

Task item: Identify Activity associated with the molecule CCOC(=O)Cc1csc(Br)n1
Reply: 89.6

More entries:
Task item: Return Activity for the following molecule: Cc1nnc(N)s1
Reply: 114

Task item: Give reported Activity value for O=S(=O)(Cc1ccccc1)Nc1nccs1
Reply: 45.2

---

- protocol_text: Aqueous stability of the compound at pH 7.4 measured after 60 mins by spectrophotometric analysis
- Type: physicochemical
- measurement_conditions: buffer, pH 7.4, 1 h
parameter_measured: Stability

For orientation, consider the following solved cases.
Task item: Provide one value: measured Stability of O=C(O)c1csc(-c2ccc(F)cc2)n1
Reply: Stable

Task item: Please give the documented Stability of CCOC(=O)Cc1csc(N)n1
Reply: Stable

Task item: Return reported Stability. Input compound: CCOC(=O)c1cnc(Br)s1
Reply: Stable

Task item: Please look at this compound and report its Stability: O=C(O)c1csc(Br)n1
Reply: Stable

Let us examine a further case.
Task item: State, in one line, measured Stability of Cc1nc(C(=O)O)cs1
Reply: Stable

---

- protocol_text: Redox activity of compound assessed as redox index at 10 uM measured by resazurin assay
- Type: physicochemical
# Activity_index per record follows

The cases that follow already have their Activity_index on record.
Task item: Please give the documented Activity_index of Fc1ccc(-c2csc(Br)n2)cc1F
Reply: 0.9

Task item: Supply Activity_index value. Item: Cc1nnc(N)s1
Reply: 0.9

Task item: For the compound Brc1cscn1 , report Activity_index.
Reply: 1

Task item: Using the record for CC(=O)c1nc(C)cs1 , state its measured Activity_index.
Reply: 0.9

Task item: Output Activity_index of Nc1nnc(C(F)(F)F)s1
Reply: 1

More entries:
Task item: Identify measured Activity_index associated with O=C(O)C(=O)Nc1ncc(Br)s1
Reply: 0.9

Task item: Report Activity_index for NCCc1cn(Cc2cscn2)nn1
Reply: 0.9

Task item: Give the reported value of Activity_index for this record: N#Cc1cnc(NC(=O)CC(=O)O)s1
Reply: 1

Task item: Specify reported Activity_index for the compound shown: CCOC(=O)Cc1csc(N)n1
Reply: 1

Task item: State its Activity_index for this compound: N#Cc1cnc(NC(=O)C(=O)O)s1
Reply: 0.9

Task item: Return value of Activity_index for input O=C(O)c1csc(Nc2cccc3ncccc23)n1 , no commentary.
Reply: 2.4

Task item: Return Activity_index for the following compound: CNc1nnc(C(F)(F)F)s1
Reply: 1

Task item: Specify reported Activity_index for the compound shown: O=C(O)c1csc(-c2ccc(F)cc2)n1
Reply: 0.9

Task item: Entry Nc1nc(CC(=O)O)cs1 needs its Activity_index filled in; supply it.
Reply: 1

Task item: Quick one: give measured Activity_index for Brc1cnc(Br)s1
Reply: 0.9

Task item: Answer with the recorded Activity_index for the compound listed here: CCOC(=O)c1csc(Br)n1
Reply: 1

Task item: Give the reported value of Activity_index for this record: COC(=O)c1cnc(Br)s1
Reply: 1.1
